Overview of recorded kinase still bound, per cent of control for various molecules
- measurementTarget: MAPK11 (human)
- runDescription: KINOMEscan competition binding
- measurementConditions: compound 10.0 µM
// units = %; emit number, no label

Cc1cn(-c2cc(C(=O)Nc3ccc(C)c(NC(=O)c4ccno4)c3)cc(C(F)(F)F)c2)cn1 : 0
N#C/C(=C1/Nc2ccccc2S1)c1ccnc(NCCc2cccnc2)n1 : 85
O=c1[nH]c2ccccc2n1C1CCN(Cc2ccc(-c3nc4cc5[nH]cnc5cc4nc3-c3ccccc3)cc2)CC1 : 95
CCCS(=O)(=O)Nc1ccc(F)c(C(=O)c2c[nH]c3ncc(Cl)cc23)c1F : 100
CCc1nc(-c2cccc(C)c2)c(-c2ccnc(NC(=O)c3ccccc3)c2)s1 : 0
CC1=C(C(=O)Nc2cc3cn[nH]c3cc2F)C(c2ccc(C(F)(F)F)cc2)CC(=O)N1 (centres undefined) : 92
COc1cc(N2CCC(C(N)=O)CC2)ccc1Nc1nc(N)c(Cl)c(Nc2ccccc2S(=O)(=O)C(C)C)n1 : 100
COc1cc(C)c(Sc2cnc(NC(=O)c3ccc(CNC(C)C(C)C)cc3)s2)cc1C(=O)N1CCN(C(C)=O)CC1 (centres undefined) : 100

# context switch: different molecule, same kinase still bound, per cent of control
Input line: Which kinase still bound, per cent of control value is on record for `C=CC(=O)Nc1ccc(C(=O)c2sc(Nc3ccc(N4CCN(C)CC4)cc3OC)nc2N)cc1` ?
Output line: 4.1

---

Overview of recorded kinase still bound, per cent of control for various compounds
- measurementTarget: UniProt:O94921
- Sequence (O94921 whole entry, looked up): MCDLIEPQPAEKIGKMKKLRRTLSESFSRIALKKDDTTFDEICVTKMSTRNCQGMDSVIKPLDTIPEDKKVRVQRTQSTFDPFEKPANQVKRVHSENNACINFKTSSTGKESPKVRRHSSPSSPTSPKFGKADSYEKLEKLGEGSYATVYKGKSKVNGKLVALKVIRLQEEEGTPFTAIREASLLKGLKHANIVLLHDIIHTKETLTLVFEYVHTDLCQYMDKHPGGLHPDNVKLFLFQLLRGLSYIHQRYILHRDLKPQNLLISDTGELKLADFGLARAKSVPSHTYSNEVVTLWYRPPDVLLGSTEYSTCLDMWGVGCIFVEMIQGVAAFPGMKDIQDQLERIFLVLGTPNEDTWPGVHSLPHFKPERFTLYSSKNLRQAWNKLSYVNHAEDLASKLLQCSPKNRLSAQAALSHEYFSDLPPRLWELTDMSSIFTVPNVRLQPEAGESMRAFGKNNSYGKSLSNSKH
- runDescription: KINOMEscan competition binding
- measurementConditions: compound 10.0 µM
// units = %; emit number, no label

// solved cases for kinase still bound, per cent of control follow
COc1cc(N2CCC(C(N)=O)CC2)ccc1Nc1nc(N)c(Cl)c(Nc2ccccc2S(=O)(=O)C(C)C)n1 : 100
COc1ccc(N(C(=O)Oc2cc(C(=O)Nc3cccc(C(F)(F)F)c3)ccc2C)c2ccnc(Nc3ccc(N4CCN(C)CC4)cc3)n2)c(OC)c1 : 100
Cc1cn(-c2cc(C(=O)Nc3ccc(C)c(NC(=O)c4ccno4)c3)cc(C(F)(F)F)c2)cn1 : 100
O=c1[nH]c2ccccc2n1C1CCN(Cc2ccc(-c3nc4cc5[nH]cnc5cc4nc3-c3ccccc3)cc2)CC1 : 100
N#Cc1cc(-c2ccnc(Nc3ccc(-n4cnc(-c5cccnc5)n4)cc3)n2)cc(N2CCOCC2)c1 : 35

Input line: Which kinase still bound, per cent of control value is on record for `COc1cc2c(Nc3ccc(NC(=O)c4ccccc4)cc3)ncnc2cc1OCCCN1CCOCC1` ?
Output line: 100

Input line: Which kinase still bound, per cent of control value is on record for `CNC(=O)Nc1ccc(-c2nc(N3CC4CCC(C3)O4)c3cnn(C4CCC5(CC4)OCCO5)c3n2)cc1` ?
Output line: 94

Input line: Which kinase still bound, per cent of control value is on record for CC1=C(C(=O)Nc2cc3cn[nH]c3cc2F)C(c2ccc(C(F)(F)F)cc2)CC(=O)N1 (stereo not drawn) ?
Output line: 89

---

- measurementTarget: DCLK3 (human)
- runDescription: KINOMEscan competition binding
- measurementConditions: compound 10.0 µM
In plain terms, low kinase still bound, per cent of control, meaning strictly below 90%, gives met, and everything else gives not met.

Look over these answered cases.
Cc1cn(-c2cc(C(=O)Nc3ccc(C)c(NC(=O)c4ccno4)c3)cc(C(F)(F)F)c2)cn1 : not met
CCN1CCN(Cc2ccc(NC(=O)c3ccc(C)c(/C=C/c4cnc5[nH]ccc5c4OC)c3)cc2C(F)(F)F)CC1 : met
COc1cc(N2CCC(C(N)=O)CC2)ccc1Nc1nc(N)c(Cl)c(Nc2ccccc2S(=O)(=O)C(C)C)n1 : not met
N#C/C(=C1/Nc2ccccc2S1)c1ccnc(NCCc2cccnc2)n1 : not met
CNC(=O)Nc1ccc(-c2nc(N3CC4CCC(C3)O4)c3cnn(C4CCC5(CC4)OCCO5)c3n2)cc1 : not met
CCN(CCO)CCCOc1ccc2c(Nc3cc(CC(=O)Nc4cccc(F)c4)[nH]n3)ncnc2c1 : met
CC1=C(C(=O)Nc2cc3cn[nH]c3cc2F)C(c2ccc(C(F)(F)F)cc2)CC(=O)N1 (centres undefined) : met

Lab note: next compound to report on.
Input line: Does `COc1cc2c(Nc3ccc(NC(=O)c4ccccc4)cc3)ncnc2cc1OCCCN1CCOCC1` have kinase still bound, per cent of control strictly under 90%?
Output line: not met
